Recorded measurements of solubility, one per entry
experiment: Solubility of the compound; type: physicochemical
Quantity: solubility (µM)

CC(=O)Nc1nonc1NCc1ccc(-c2cc(Cl)cc(F)c2-c2noc(C)n2)cc1F; 21
COc1cc(C(=O)Nc2nonc2NCc2ccc(-c3cc(Cl)cc(F)c3-c3noc(C)n3)cc2F)on1; 12

====

assay: Metabolic stability in human liver microsomes assessed as compound remaining after 1 hr; assay type: ADME, Microsome; settings: read-out: Stability
Quantity: remaining at 1 h

COc1cc(C(=O)Nc2nonc2NCc2ccc(-c3cc(Cl)cc(F)c3-c3noc(C)n3)cc2F)on1; 61%

====

test: Solubility in aqueous buffer; format: physicochemical
Quantity: solubility (µM)

COc1cc(C(=O)Nn2c(NCc3ccc(-c4cc(Cl)cc(F)c4-c4noc(C)n4)cc3F)nc3ccccc32)on1; 14
